Attribute: koff
# tested_on: T1, human GFRα3 expressed with a C-terminal myc-myc-hexahistidine tag (human, UniProt O60609 32-374, biotinylated (sites not given) in ELISA format 2 and in the Octet cross-competition; not in SPR)
# T1 construct: also called hGFRα3-mmh; hGFRα3-mmH
# method_description: SPR, Ab captured, 25C
# unit: s⁻¹ | format: bare number

[[record]]
binder = "H4H2357S (antibody, human IgG4, V domains shown, human IgG4 Fc (H4H)) VH: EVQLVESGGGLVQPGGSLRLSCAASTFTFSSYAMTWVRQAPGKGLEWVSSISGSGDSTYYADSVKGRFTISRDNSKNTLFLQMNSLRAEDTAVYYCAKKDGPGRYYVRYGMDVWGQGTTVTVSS VL: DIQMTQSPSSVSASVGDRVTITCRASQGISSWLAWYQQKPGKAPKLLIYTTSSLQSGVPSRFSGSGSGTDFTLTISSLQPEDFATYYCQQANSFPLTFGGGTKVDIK"
assay_result = 0.000557

[[record]]
binder = "H4H2342P (antibody, human IgG4, V domains shown, human IgG4 Fc (H4H)) VH: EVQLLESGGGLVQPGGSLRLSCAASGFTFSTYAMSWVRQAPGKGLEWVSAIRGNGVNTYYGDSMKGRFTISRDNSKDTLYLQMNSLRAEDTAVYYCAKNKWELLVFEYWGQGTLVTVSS VL: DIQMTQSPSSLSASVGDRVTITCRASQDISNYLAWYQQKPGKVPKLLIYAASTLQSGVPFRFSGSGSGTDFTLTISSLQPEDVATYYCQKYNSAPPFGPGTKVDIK"
assay_result = 0.000204


Consider H4H2344S (antibody, human IgG4, V domains shown, human IgG4 Fc (H4H)) VH: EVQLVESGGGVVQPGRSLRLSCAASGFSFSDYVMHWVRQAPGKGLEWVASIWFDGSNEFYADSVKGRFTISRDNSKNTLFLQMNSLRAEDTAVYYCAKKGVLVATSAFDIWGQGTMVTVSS VL: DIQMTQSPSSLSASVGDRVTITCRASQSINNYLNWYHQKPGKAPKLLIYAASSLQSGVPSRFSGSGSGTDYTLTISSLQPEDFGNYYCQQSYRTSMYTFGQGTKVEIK . Its measured koff is 0.00024
